The entries below are paired with their reported thermal stability score.
system: HeLa Kyoto; assay: thermal stability score vs G1/S (z-score of summed log2 fold changes over temperatures); higher = more thermally stable than in G1/S; details: cell cycle stage: early G1 (4.5 h after nocodazole release);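 further: synchronized HeLa Kyoto cells, proteins quantified by TMT10plex mass spectrometry, three biological replicates, mitosis taken 0.5 h after nocodazole release, G1/S directly after double thymidine block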
Response field accepts a number only; no unit should be typed.

MRRLNRKKTLSLVKELDAFPKVPESYVETSASGGTVSLIAFTTMALLTIMEFSVYQDTWMKYEYEVDKDFSSKLRINIDITVAMKCQYVGADVLDLAETMVASADGLVYEPTVFDLSPQQKEWQRMLQLIQSRLQEEHSLQDVIFKSAFKSTSTALPPREDDSSQSPNACRIHGHLYVNKVAGNFHITVGKAIPHPRGHAHLAALVNHESYNFSHRIDHLSFGELVPAIINPLDGTEKIAIDHNQMFQYFITVVPTKLHTYKISADTHQFSVTERERIINHAAGSHGVSGIFMKYDLSSLMVTVTEEHMPFWQFFVRLCGIVGGIFSTTGMLHGIGKFIVEIICCRFRLGSYKPVNSVPFEDGHTDNHLPLLENNTH [ERGIC2] ... -2.27
MAATALLEAGLARVLFYPTLLYTLFRGKVPGRAHRDWYHRIDPTVLLGALPLRSLTRQLVQDENVRGVITMNEEYETRFLCNSSQEWKRLGVEQLRLSTVDMTGIPTLDNLQKGVQFALKYQSLGQCVYVHCKAGRSRSATMVAAYLIQVHKWSPEEAVRAIAKIRSYIHIRPGQLDVLKEFHKQITARATKDGTFVISKT [PTPMT1] ... -0.395

The sequence listed as MEVPPPAPRSFLCRALCLFPRVFAAEAVTADSEVLEERQKRLPYVPEPYYPESGWDRLRELFGKDEQQRISKDLANICKTAATAGIIGWVYGGIPAFIHAKQQYIEQSQAEIYHNRFDAVQSAHRAATRGFIRYGWRWGWRTAVFVTIFNTVNTSLNVYRNKDALSHFVIAGAVTGSLFRINVGLRGLVAGGIIGALLGTPVGGLLMAFQKYSGETVQERKQKDRKALHELKLEEWKGRLQVTEHLPEKIESSLQEDEPENDAKKIEALLNLPRNPSVIDKQDKD [TIMMDC1] has a reported thermal stability score of -2.95
